# Target Entity: 5-hydroxytryptamine receptor 2A (Rattus norvegicus, UniProt P14842)
# Sequence (P14842 whole entry): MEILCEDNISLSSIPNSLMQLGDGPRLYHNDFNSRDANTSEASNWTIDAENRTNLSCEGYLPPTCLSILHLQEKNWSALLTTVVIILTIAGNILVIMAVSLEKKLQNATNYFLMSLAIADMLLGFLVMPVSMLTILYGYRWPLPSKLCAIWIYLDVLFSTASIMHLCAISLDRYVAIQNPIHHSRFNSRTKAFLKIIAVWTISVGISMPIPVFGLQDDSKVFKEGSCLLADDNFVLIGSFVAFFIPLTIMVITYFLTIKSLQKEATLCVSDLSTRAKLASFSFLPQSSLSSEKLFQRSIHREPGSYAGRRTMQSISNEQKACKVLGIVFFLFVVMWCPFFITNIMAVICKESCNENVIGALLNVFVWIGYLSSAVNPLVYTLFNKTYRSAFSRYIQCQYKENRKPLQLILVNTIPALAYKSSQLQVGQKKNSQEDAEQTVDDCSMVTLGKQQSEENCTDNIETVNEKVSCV
# Assay Name: Activity against 5HT2A mediated intracellular calcium mobilization by FLIPR in rat vascular smooth muscle cells
pEC50: −log10 of the molar value.
Tag: fulfilled if measured pEC50 is not below 7, not fulfilled if it is.

[ask] Please tell me: is the molecule `C[C@H](N)Cn1ncc2ccc(O)c(Cl)c21` at or over 7 in terms of pEC50?
[reply] fulfilled

[ask] Decide: is the reported value of pEC50 for `C[C@H](N)Cn1ncc2ccc(O)c(F)c21` equal to or greater than 7?
[reply] fulfilled

[ask] Identify whether the reported pEC50 of the following molecule is 7 or greater: COc1ccc2[nH]cc(CCN(C)C)c2c1 [MEBUFOTENIN]
[reply] not fulfilled

[ask] Threshold query (pEC50 >= 7) on `COc1ccc2cnn(C[C@H](C)N)c2c1`
[reply] fulfilled

[ask] Is reported pEC50 greater than or equal to 7 here: `C[C@H](N)Cn1ncc2ccc(O)c(I)c21`
[reply] not fulfilled

[ask] # bool: pEC50 of `C[C@@H](N)Cn1ncc2ccc(O)cc21` >= 7
[reply] not fulfilled

###

pKi: −log10 of the molar value.
Reported Property: pKi

// pKi (5-hydroxytryptamine receptor 5A (Homo sapiens, UniProt P47898)) for `C[C@H](N)Cn1ncc2ccc(O)cc21` = < 5.00

###

# Assay Name: Half life in phosphate buffer at pH 7.4 in 25 degC
# Format: ADME
Decision: T1/2 beneath 4 yr gives condition met; T1/2 meeting or exceeding 4 yr gives condition not met.

[ask] is_below(T1/2, 4 yr) for `Cc1c(O)ccc2cnn(C[C@H](C)N)c12` ?
[reply] condition met

[ask] Is T1/2 strictly under 4 yr for the entry `C[C@H](N)Cn1ncc2ccc(O)cc21` ?
[reply] condition not met

[ask] Please state whether T1/2 is below 4 yr for `C[C@H](N)Cn1ncc2ccc(O)c(F)c21`
[reply] condition met

[ask] Given `NCCn1ncc2ccc(O)cc21` , is recorded T1/2 strictly lower than 4 yr?
[reply] condition met

###

Task for the reader: assign each of the following molecules its reported pEC50.
# Target Entity: UniProt P18089
# Sequence (P18089 whole entry): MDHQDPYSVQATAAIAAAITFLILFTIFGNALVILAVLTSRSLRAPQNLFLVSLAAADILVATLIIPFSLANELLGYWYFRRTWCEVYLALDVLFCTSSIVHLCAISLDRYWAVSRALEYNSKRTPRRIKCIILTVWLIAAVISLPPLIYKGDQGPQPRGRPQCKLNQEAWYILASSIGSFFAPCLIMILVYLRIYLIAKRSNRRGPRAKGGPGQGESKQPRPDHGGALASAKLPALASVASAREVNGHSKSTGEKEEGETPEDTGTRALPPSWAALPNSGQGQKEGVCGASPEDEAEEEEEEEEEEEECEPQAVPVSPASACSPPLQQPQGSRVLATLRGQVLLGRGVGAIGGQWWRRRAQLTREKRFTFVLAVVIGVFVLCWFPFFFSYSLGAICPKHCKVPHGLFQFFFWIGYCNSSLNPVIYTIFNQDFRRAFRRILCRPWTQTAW
# Assay Name: Activity at adrenergic alpha-2B receptor expressed in opposum kidney OK cell by adenylyl cyclase assay
pEC50 is a log-scale quantity: -log10 of the concentration expressed in molar.

Form: molecule = `C[C@H](N)Cn1ncc2ccc(O)cc21` ; pEC50 = 5.52

Value of measured pEC50 for the entry `C[C@@H](N)Cn1ncc2ccc(O)cc21` : 5.33

###

# Target Entity: Alpha-2C adrenergic receptor (Homo sapiens)
# Sequence (P18825 whole entry): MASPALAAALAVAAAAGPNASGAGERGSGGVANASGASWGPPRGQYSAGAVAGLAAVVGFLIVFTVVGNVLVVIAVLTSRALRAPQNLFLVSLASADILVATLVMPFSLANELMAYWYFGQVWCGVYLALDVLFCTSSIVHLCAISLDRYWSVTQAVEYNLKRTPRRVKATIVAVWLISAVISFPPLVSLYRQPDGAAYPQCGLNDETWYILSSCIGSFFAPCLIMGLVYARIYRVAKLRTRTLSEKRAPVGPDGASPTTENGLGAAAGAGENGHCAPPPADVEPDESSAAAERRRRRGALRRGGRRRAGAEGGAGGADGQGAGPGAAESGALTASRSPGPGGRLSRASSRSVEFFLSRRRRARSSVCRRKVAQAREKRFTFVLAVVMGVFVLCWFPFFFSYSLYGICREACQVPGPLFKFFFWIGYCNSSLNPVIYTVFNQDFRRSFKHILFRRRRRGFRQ
Reported Property: Ki (µM)
// units = µM; emit number, no label

Per the records, this compound ( `C[C@H](N)Cn1ncc2ccc(O)cc21` ) has Ki equal to 4.7

###

For each record, write down the corresponding pKi.
pKi is defined as minus the log10 of a concentration measured in mol/L.

The molecule `C[C@H](N)Cn1ncc2ccc(O)c(Cl)c21` , when measured on 5-hydroxytryptamine receptor 2B (Homo sapiens), yielded pKi of 8.42

The molecule `C[C@H](N)Cn1ncc2ccc(O)cc21` , tested on 5-hydroxytryptamine receptor 2B (Homo sapiens), showed pKi of 8.09

Observed pKi, 5-hydroxytryptamine receptor 2B (Homo sapiens), `C[C@H](N)Cn1ncc2ccc(O)c(I)c21` : 8.22

Recorded pKi for `C[C@H](N)Cn1ncc2ccc(O)c(F)c21` on 5-hydroxytryptamine receptor 2B (Homo sapiens) was 8.77

pKi on 5-hydroxytryptamine receptor 2B (Homo sapiens) for `Cc1c(O)ccc2cnn(C[C@H](C)N)c12` is 8.06

5-hydroxytryptamine receptor 2B (Homo sapiens) pKi of `NCCn1ncc2ccc(O)cc21` is 7.82

Let me check: `COc1ccc2cnn(C[C@H](C)N)c2c1` , system 5-hydroxytryptamine receptor 2B (Homo sapiens), measured pKi is 8.12

Noted pKi for `C[C@@H](N)Cn1ncc2ccc(O)cc21` , tested on 5-hydroxytryptamine receptor 2B (Homo sapiens): 7.46
